# Test system: Jurkat T-cells
# protocol description: CFSE-based cytotoxic activity assay
# Assay type: cell-based, human
# condition context: non-AML cells
Cytoxicity (effect > 30% ±SD) overview

The compound listed as `Cc1cc(NC(=O)c2c(O)nn3ccccc23)c(C(C)C)cc1Oc1ccncc1` shows Cytoxicity (effect > 30% ±SD) equal to 75,8 ± 10,3 µM

The compound listed as `Cc1cc(NC(=O)c2c(O)nn3ccccc23)c(C(C)C)cc1Oc1ccccc1` shows Cytoxicity (effect > 30% ±SD) equal to > 100 µM

The compound `Cc1cc(Oc2ccccc2)c(C(C)C)cc1NC(=O)c1c(O)nn2ccccc12` showed Cytoxicity (effect > 30% ±SD) equal to >100 µM

Record `Cc1cc(NC(=O)c2c(O)nn3ccccc23)c(C(C)C)cc1Oc1ccc(C(F)(F)F)cc1` . Reported Cytoxicity (effect > 30% ±SD): 71,3 ± 5,3 µM
